Assay: small-molecule microarray binders of probe aWnt5a, primary screen, biochemical, biotinylated probe, 635/667 nm fluorescence (AID 1113);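 also: score merges 667 nm fluorescence intensity with signal-to-noise per printed feature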
Conditions: higher = more signal
The following compounds are listed with their measured composite z-score values.

# compound, composite z-score
records = [
    ("CCCCCN1CC=CC23O[C@@H]4/C=C\\CCC(C)OC(=O)C4[C@H]2C(=O)N(CCO)[C@@H]3C1=O (stereo not given in full)", -0.176),
    ("O=C(NC1CC1)[C@@H]1c2ccccc2C(=O)N(Cc2ccccc2C(F)(F)F)[C@H]1c1ccc(CO)cc1", -0.0977),
    ("CC(C)C(=C=CC[C@@H](O)c1ccc(CO)o1)CCO", -0.178),
    ("CC(C)C(CO)N1C(=O)[C@@H]2[C@H]3C(=O)OCC=C[C@H]3OC23C=CCN(Cc2ccccc2)C(=O)[C@@H]13 (stereo not given in full)", -0.256),
    ("CC(C)N1CC=CC23O[C@@H]4/C=C\\CCCOC(=O)C4[C@H]2C(=O)N(CCCO)[C@@H]3C1=O (stereo not given in full)", -0.14),
    ("COc1ccc([Si](C)(C)[C@@H]2[C@@H](CC(=O)N3CCC[C@H]3CO)O[C@]3(C(=O)N(Cc4ccc(I)cc4)c4ccccc43)[C@H]2C)cc1", -0.165),
    ("Cc1ccc(S[C@]2(C(=O)NCCN3CCOCC3)CC(=O)N(Cc3cc(C(F)(F)F)cc(C(F)(F)F)c3)[C@@H]2c2ccc(CO)cc2)cc1", -0.175),
    ("CCCNC(=O)[C@@H]1c2ccccc2C(=O)N(Cc2cc(C(F)(F)F)cc(C(F)(F)F)c2)[C@H]1c1ccc(CO)cc1", -0.146),
    ("CN1C=C(C(=O)OCCS(C)(=O)=O)C(C(=O)OCCS(C)(=O)=O)=CC(CCCO)=CC1c1cccs1 (stereo not given)", -0.0161),
    ("O=C(O)[C@H]1C[C@H]2C(=O)NCC(=O)N2[C@H]1c1cccc(OCCO)c1", 0.291),
    ("[N-]=[N+]=NCc1ccccc1C[C@@]1(C(=O)O)N=C(c2ccc(OCCCO)cc2)O[C@@H]1c1ccccc1", -0.0799),
    ("C#CCN1C(C(=O)OCC)OC[C@H]1c1ccccc1 (stereo not given in full)", -0.175),
    ("C/C=C/[C@@H](CCn1cc(CCO[Si](C(C)C)(C(C)C)C(C)C)nn1)[Si](C)(C)c1ccc(OC)cc1", -0.182),
    ("COCCOC(=O)N1C(=O)[C@@]2(c3cc(C#CCNC(N)=O)ccc31)[C@H](C(=O)NC[C@H](O)c1ccccc1)[C@H]1C(=O)O[C@H](c3ccccc3)[C@H](c3ccccc3)N1[C@@H]2c1ccc(O)cc1", -0.0203),
    ("C=C(COC)C(=O)CC[C@H](OC(=O)c1cccnc1)c1cccc(OCCO)c1", 0.506),
    ("COCCCNC(=O)[C@@]1(Cc2ccccc2CN=[N+]=[N-])COC(c2ccc(OCCCO)cc2)=N1", 0.299),
    ("C=CCNC(=O)[C@@H]1[C@H]2C(=O)O[C@H](c3ccccc3)[C@H](c3ccccc3)N2[C@H](c2ccc(O)cc2)[C@@]12C(=O)N(C(=O)OCCOC)c1ccc(C#Cc3ccc(OC)cc3)cc12", -0.0368),
    ("COc1c(C)cc(-c2cc3c(c(CCc4ccccc4)n2)[Si](C(C)C)(C(C)C)OC3)cc1C", -0.152),
    ("COc1ccc(/C=C/C(=O)c2cccc(OCC(=O)OC(C)(C)C)c2)cc1", -0.173),
    ("COCCOC(=O)N1C(=O)[C@@]2(c3cc(C#CC4(O)CCCCCC4)ccc31)[C@H](c1ccccc1OCCO)N1[C@H](c3ccccc3)[C@H](c3ccccc3)OC(=O)[C@H]1[C@@H]2C(=O)Nc1nc2ccccc2s1", 0.0317),
    ("C=C(C(=O)CC[C@H](OC(C)=O)c1ccc(CO)o1)C(C)C", -0.096),
    ("[N-]=[N+]=NCc1ccccc1C[C@]1(C(=O)NCc2ccccc2)N=C(c2ccc(OCCCO)cc2)O[C@H]1c1ccccc1", 0.108),
    ("C=C(C1=CCN(S(=O)(=O)c2ccc(C)cc2)C1)[C@@H](OC(C)=O)[C@@H]1CCCN1S(=O)(=O)c1ccccc1[N+](=O)[O-]", -0.208),
    ("COC(=O)C(CC#Cc1ccc2c(c1)[C@]1(C(=O)N2)[C@H](C(=O)O)[C@H]2C(=O)O[C@H](c3ccccc3)[C@H](c3ccccc3)N2[C@@H]1c1ccc(OCCO)cc1)C(=O)OC", -0.0229),
    ("C=CC[C@]1(C(=O)N(C)C)N=C(c2ccc(OCCCO)cc2)O[C@H]1c1ccccc1CN=[N+]=[N-]", 0.0324),
    ("COc1ccc([Si](C)(C)[C@H]2[C@H](CC(=O)N3Cc4ccccc4C[C@H]3CO)O[C@@]3(C(=O)N(Cc4cccc(N5C(=O)COc6ccccc65)c4)c4ccccc43)[C@@H]2C)cc1", 0.0094),
    ("COC(=O)C1=CC(c2ccc(CO)cc2)=CC(C2CC2)N(C)C=C1C(=O)OC (stereo not given)", -0.0179),
    ("COC(=O)C1=CC(CCCO)=CC(C2CC2)N(Cc2cc3c(cc2Br)OCO3)C=C1C(=O)OC (stereo not given)", -0.0269),
    ("C=CCC1(CC=C)C[C@H]2CO[C@H](c3ccc(OC)cc3)N2C1=O", -0.124),
    ("CCCC[C@@H](O)C1=C(C)C[C@H]2C(=O)N(C)C(=O)[C@H]2[C@H]1CO", -0.0944),
]
